system: V-C8 (BRCA2-deficient hamster cells); test: normalised cell viability (fraction of plate median); higher = more viable cells (less toxic); details: treatment time: 3 days; 5 µM
Counter-ions that a name gives are not always drawn. The full ranking holds about 1,300 compounds; the median of “normalised cell viability” is about 1, and the lowest 2% start at about 0.14. Only a selection was taken, and the lowest values are over-represented in it overall.
The label is TRUE for normalised cell viability below 1 and FALSE for normalised cell viability equal to or exceeding 1.

>  <Molecule>
Cc1cnc(C(=O)NCCc2ccc(S(=O)(=O)NC(=O)NC3CCCCC3)cc2)cn1 [Glipizide]

>  <Label>
FALSE

$$$$
>  <Molecule>
c1ccc([C@H]2CN3CCSC3=N2)cc1 [Levamisole hydrochloride]

>  <Label>
FALSE

$$$$
>  <Molecule>
CC1=Nc2ccc(Cl)cc2S(=O)(=O)N1 [Diazoxide]

>  <Label>
TRUE

$$$$
>  <Molecule>
O=C1CN(/N=C/c2ccc([N+](=O)[O-])o2)C(=O)N1

>  <Label>
TRUE

$$$$

###

Recorded normalised cell viability values for a group of molecules are listed next.
tested on: V-C8 (BRCA2-deficient hamster cells); test: normalised cell viability (fraction of plate median); higher = more viable cells (less toxic); details: treatment time: 3 days; 5 µM
Where a name gives a salt, the structure may show the parent alone. Whole data set: some 1,300 compounds, median “normalised cell viability” near 1, cut for the lowest 2% near 0.14. The sample as a whole holds a higher share of the lowest values than the screen did.

>  <Molecule>
Nc1nc(=O)c2c([nH]1)NC[C@@H](CNc1ccc(C(=O)N[C@@H](CCC(=O)O)C(=O)O)cc1)N2C=O [Folinic acid calcium salt]

>  <normalised cell viability>
1.05

$$$$
>  <Molecule>
CCN(CC)CCc1nc(-c2ccccc2)no1 [Oxalamine citrate salt]

>  <normalised cell viability>
0.986

$$$$
>  <Molecule>
N[C@@H](C(=O)N[C@@H]1C(=O)N2C(C(=O)O)=C(Cl)CC[C@H]12)c1ccccc1 [Loracarbef]

>  <normalised cell viability>
1.05

$$$$
>  <Molecule>
CCSc1ccc2c(c1)N(CCCN1CCN(C)CC1)c1ccccc1S2 [Thiethylperazine dimalate]

>  <normalised cell viability>
0.932

$$$$
>  <Molecule>
COC(=O)Nc1nc2cc(C(=O)c3cccs3)ccc2[nH]1 [Nocodazole]

>  <normalised cell viability>
0.147

$$$$
>  <Molecule>
Cc1cc(NC(=O)C2=C(O)c3ccccc3S(=O)(=O)N2C)no1 [Isoxicam]

>  <normalised cell viability>
1.04

$$$$
>  <Molecule>
COc1cccc2c1C(=O)c1c(O)c3c(c(O)c1C2=O)C[C@@](O)(C(=O)CO)C[C@@H]3O[C@H]1C[C@H](N)[C@H](O)[C@H](C)O1 [Doxorubicin hydrochloride]

>  <normalised cell viability>
0.127

$$$$
>  <Molecule>
C[C@@]1(O)CCOC(=O)C1 [Mevalonic-D, L acid lactone]

>  <normalised cell viability>
1.12

$$$$
>  <Molecule>
CCCCc1nc(Cl)c(CO)n1Cc1ccc(-c2ccccc2-c2nnn[nH]2)cc1 [Losartan]

>  <normalised cell viability>
1.02

$$$$
>  <Molecule>
CC(C)(C)NC[C@H](O)COc1nsnc1N1CCOCC1 [Timolol maleate salt]

>  <normalised cell viability>
1.01

$$$$
>  <Molecule>
COCCOC(=O)C1=C(C)NC(C)=C(C(=O)OC/C=C/c2ccccc2)C1c1cccc([N+](=O)[O-])c1 (configuration not stated) [Cilnidipine]

>  <normalised cell viability>
0.98

$$$$
>  <Molecule>
CC(=C(CCO)SSCC1CCCO1)N(C=O)Cc1cnc(C)nc1N (stereo in doubt) [Fursultiamine Hydrochloride]

>  <normalised cell viability>
1.03

$$$$
